Collected t1/2 values appear next to each entry.
procedureText: Stability in human plasma assessed as half life at 100 uM by LCMS analysis
Format: ADME, cell-free
Units required after the number.

{"compound": "C/C(=C\\CCP(=O)(OCOC(=O)CC1CCCCC1)Oc1ccc(C(C)C)cc1)CO (stereo not given)", "t1/2": "94 min"}
{"compound": "COc1ccc(C(=O)OCOP(=O)(CC/C=C(\\C)COC(C)=O)Oc2ccc(C(C)C)cc2)cc1 (stereo not given)", "t1/2": "180 min"}
{"compound": "CC(=O)OC/C(C)=C/CCP(=O)(OCOC(=O)C1CCOCC1)Oc1ccc(C(C)C)cc1 (stereo not given)", "t1/2": "16 min"}
{"compound": "CC(=O)OC/C(C)=C/CCP(=O)(OCOC(=O)c1ccccc1)Oc1ccc(C(C)C)cc1 (stereo not given)", "t1/2": "66 min"}
{"compound": "C/C(=C\\CCP(=O)(OCOC(=O)CC1CCOCC1)Oc1cccc2ccccc12)CO (stereo not given)", "t1/2": "5.9 min"}
{"compound": "C/C(=C\\CCP(=O)(OCOC(=O)C1CCOCC1)Oc1ccc(C(C)C)cc1)CO (stereo not given)", "t1/2": "11 min"}
{"compound": "CC(=O)OC/C(C)=C/CCP(=O)(OCOC(=O)CC1CCOCC1)Oc1ccc(C(C)C)cc1 (stereo not given)", "t1/2": "42 min"}
{"compound": "CC(=O)OC/C(C)=C/CCP(=O)(OCOC(=O)CC1CCOCC1)Oc1cccc2ccccc12 (stereo not given)", "t1/2": "15 min"}
{"compound": "COc1ccc(C(=O)OCOP(=O)(CC/C=C(\\C)CO)Oc2ccc(C(C)C)cc2)cc1 (stereo not given)", "t1/2": "500 min"}

Let us move to another entry and its t1/2.
Which value of t1/2 has been reported for CC(=O)OC/C(C)=C/CCP(=O)(OCOC(=O)CC1CCCCC1)Oc1ccc(C(C)C)cc1 (stereo not given) in the records?
750 min

====

procedureText: Stability in mouse plasma assessed as compound remaining measured after 2 hrs by MS analysis
Type: ADME, cell-free
experimentalEndpoint: Stability

{"compound": "C/C(=C\\CCP(=O)(OCOC(=O)CC1CCOCC1)Oc1cccc2ccccc12)CO (stereo not drawn)", "reportedResult": "Stable"}
{"compound": "COc1ccc(C(=O)OCOP(=O)(CC/C=C(\\C)CO)Oc2ccc(C(C)C)cc2)cc1 (stereo not drawn)", "reportedResult": "Stable"}
{"compound": "C/C(=C\\CCP(=O)(OCOC(=O)CC1CCOCC1)Oc1ccc(C(C)C)cc1)CO (stereo not drawn)", "reportedResult": "Stable"}

====

Collected EC50 values appear next to each entry.
procedureText: Stimulation of IL-2-treated human Vgamma9Vdelta2 T cell proliferation incubated for 72 hrs followed by compound washout measured after 11 days by flow cytometry
Type: functional, cell-based
Field: numeric (pM). Do not append units.

{"compound": "C/C(=C\\CCP(=O)(OCOC(=O)CC1CCOCC1)Oc1ccc(C(C)C)cc1)CO (configuration not stated)", "EC50 (pM)": 530}
{"compound": "CC(=O)OC/C(C)=C/CCP(=O)(OCOC(=O)c1ccccc1)Oc1ccc(C(C)C)cc1 (configuration not stated)", "EC50 (pM)": 270}
{"compound": "CC(=O)OC/C(C)=C/CCP(=O)(OCOC(=O)CC1CCOCC1)Oc1ccc(C(C)C)cc1 (configuration not stated)", "EC50 (pM)": 440}
{"compound": "C/C(=C\\CCP(=O)(OCOC(=O)C1CCOCC1)Oc1ccc(C(C)C)cc1)CO (configuration not stated)", "EC50 (pM)": 970}

Which value of EC50 has been reported for C/C(=C\CCP(=O)(OCOC(=O)c1ccccc1)Oc1ccc(C(C)C)cc1)CO (configuration not stated) in the records?
430

Which value of EC50 has been reported for CC(=O)OC/C(C)=C/CCP(=O)(OCOC(=O)CC1CCOCC1)Oc1cccc2ccccc12 (configuration not stated) in the records?
660

Which value of EC50 has been reported for CC(=O)OC/C(C)=C/CCP(=O)(OCOC(=O)C1CCOCC1)Oc1ccc(C(C)C)cc1 (configuration not stated) in the records?
1200

Data credit: ChEMBL document CHEMBL6092182
